# target_or_system: T1, GIP Receptor (Homo sapiens, UniProt P48546)
# T1 construct: host or cells: HEK293T
# T1 sequence (P48546 22-466): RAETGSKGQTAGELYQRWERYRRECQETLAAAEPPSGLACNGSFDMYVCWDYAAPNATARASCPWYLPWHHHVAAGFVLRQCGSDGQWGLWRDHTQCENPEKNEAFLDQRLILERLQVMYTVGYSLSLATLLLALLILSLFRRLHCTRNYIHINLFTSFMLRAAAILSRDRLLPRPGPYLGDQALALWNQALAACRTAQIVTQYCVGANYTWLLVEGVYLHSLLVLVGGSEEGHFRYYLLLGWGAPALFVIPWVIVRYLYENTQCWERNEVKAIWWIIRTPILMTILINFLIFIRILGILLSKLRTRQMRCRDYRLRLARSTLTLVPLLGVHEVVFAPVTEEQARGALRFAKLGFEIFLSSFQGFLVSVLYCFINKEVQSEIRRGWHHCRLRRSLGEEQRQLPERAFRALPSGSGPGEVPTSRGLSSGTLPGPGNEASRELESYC
# protocol_description: GIP receptor-mediated bioluminescence in HEK293T cells with chimeric promiscuous G protein (FIG. 5, Table II)
# Assay type: cell-based
# condition: signal induced by maximal GIP (1 μM) divided by signal induced by buffer alone
assay_endpoint: Signal: background with GIP
I only need the number, thanks.

For this molecule ( Cyto-aequorin: Wild-type Aequorin (wt-Aequorin) amino acid sequence, SEQ ID NO:2; cytosolic (protein, listed as Aequorea victoria) MTSKQYSVKLTSDFDNPRWIGRHKHMFNFLDVNHNGKISLDEMVYKASDIVINNLGATPEQAKRHKDAVEAFFGGAGMKYGVETDWPAYIEGWKKLATDELEKYAKNEPTLIRIWGDALFDIVDKDQNGAITLDEWKAYTKAAGIIQSSEDCEETFRVCDIDESGQLDVDEMTRQHLGFWYTMDPACEKLYGGAVP ), measured Signal: background with GIP is 29.4

Origin of the recorded values: patent US20110081661A1
